Species on record: Mus musculus
assay overview: Selectivity index, ratio of Ki for binding affinity to mouse kappa opioid receptor to Ki for binding affinity to mouse mu opioid receptor
Give Ratio Ki for every item shown.

Query string: Return Ratio Ki for the following molecule: O=C(CCc1cnc[nH]1)N[C@H]1CC[C@@]2(O)[C@H]3Cc4ccc(O)c5c4[C@@]2(CCN3CC2CC2)[C@H]1O5
Result string: 6

Query string: Supply Ratio Ki value. Item: O=C(CCc1ncc[nH]1)N[C@H]1CC[C@@]2(O)[C@H]3Cc4ccc(O)c5c4[C@@]2(CCN3CC2CC2)[C@H]1O5
Result string: 1

Query string: State its Ratio Ki: O=C(Cc1ncc[nH]1)N[C@@H]1CC[C@@]2(O)[C@H]3Cc4ccc(O)c5c4[C@@]2(CCN3CC2CC2)[C@H]1O5
Result string: 11

Query string: Assign Ratio Ki to the following record: O=C(CCc1cc[nH]n1)N[C@H]1CC[C@@]2(O)[C@H]3Cc4ccc(O)c5c4[C@@]2(CCN3CC2CC2)[C@H]1O5
Result string: 6
